# key: entry, value: log10 INH
- target-desc: UniProt:P0A031
- Sequence (P0A031 whole entry): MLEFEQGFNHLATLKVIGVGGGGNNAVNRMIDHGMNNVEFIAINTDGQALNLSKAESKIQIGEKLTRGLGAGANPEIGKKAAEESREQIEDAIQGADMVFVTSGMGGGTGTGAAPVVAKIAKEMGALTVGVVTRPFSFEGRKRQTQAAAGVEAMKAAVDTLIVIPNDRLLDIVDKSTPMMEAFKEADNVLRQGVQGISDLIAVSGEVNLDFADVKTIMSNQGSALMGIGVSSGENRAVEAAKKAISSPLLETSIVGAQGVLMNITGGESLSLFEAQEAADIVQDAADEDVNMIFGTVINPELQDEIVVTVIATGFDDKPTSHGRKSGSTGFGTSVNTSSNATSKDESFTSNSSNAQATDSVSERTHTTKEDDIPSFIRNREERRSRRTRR
- test-name: Inhibition of FtsZ in Staphylococcus aureus ATCC 25923 assessed as decrease in cell division by measuring lowest compound concentration at which bacterial ballooning is observed after 5 hrs by phase-contrast light microscopy
Recorded INH (log10, µg/mL)

Looking for the measured log10 INH of NC(=O)c1c(F)ccc(OCCCn2cnc3cc([N+](=O)[O-])ccc32)c1F , can you help?
3.01

Looking for the measured log10 INH of NC(=O)c1c(F)ccc(OCCCCCCl)c1F , can you help?
1.20

Looking for the measured log10 INH of CCOC(=O)COc1ccc(F)c(C(N)=O)c1F , can you help?
1.81

Looking for the measured log10 INH of CCC(C)Oc1ccc(F)c(C(N)=O)c1F (configuration not stated) , can you help?
1.51
